Reported values of collision cross section (N2) for individual entries
conditions.used: [M+H]+; instrument: DT; single field, calibrated with Agilent tune mix (Agilent)
readout.type: collision cross section (N2) (Å²)

compound	reported.result
Nc1ncnc2c1ncn2[C@@H]1O[C@H](CSCC[C@H](N)C(=O)O)[C@@H](O)[C@H]1O	182.7
O=C(O)[C@@H]1CCCCN1	127.4
N[C@@H](CCS(=O)(=O)O)C(=O)O	140.3
Nc1[nH]c(=O)nc2nc[nH]c12 [2-Hydroxyadenine]	127
C[C@]12CCC(=O)C[C@@H]1CC[C@@H]1[C@@H]2CC[C@]2(C)C(=O)CC[C@@H]12	180.6
CC(=O)NCCCCCN	132.9
CC(C)[C@H](NC(=O)CC[C@H](N)C(=O)O)C(=O)O	160.1
Cc1cc2nc[nH]c2cc1C	129.9
N[C@@H](Cc1ccccc1)C(=O)O	140.3
CC(C)=CCC/C(C)=C/CC/C(C)=C/CC/C=C(\C)CC/C=C(\C)CCC=C(C)C	210.9
Cn1cncc1C[C@H](N)C(=O)O	134.1
NC(N)=NCCC[C@H](N)C(=O)O	136.4
Nc1ccn(C2O[C@H](CO)[C@H]3OP(=O)(O)O[C@@H]23)c(=O)n1 (stereo not given in full) [Cytidine 2',3'-cyclic phosphate]	162.3
N[C@@H](CC(=O)O)C(=O)N[C@@H](Cc1ccccc1)C(=O)O	164.9
COc1ccc(/C=C/C(=O)O)cc1	140.8
C[C@@H](O)[C@@H](O)c1cnc2[nH]c(N)nc(=O)c2n1	153.5
O=C1CC[C@@H](C(=O)O)N1	130.6
CC(C)(COP(=O)(O)OP(=O)(O)OC[C@H]1O[C@@H](n2cnc3c(N)ncnc32)[C@H](O)[C@@H]1OP(=O)(O)O)[C@@H](O)C(=O)NCCC(=O)NCCSC(=O)CCCC(=O)O	260.5
NC(=O)c1ncn([C@@H]2O[C@H](COP(=O)(O)O)[C@@H](O)[C@H]2O)c1N [5'-Phosphoribosyl-5-amino-4-imidazolecarboxamide]	171.6
C[C@@H]1O[C@@H](O[C@H]2[C@H](Oc3cc(O)c4c(c3)O[C@H](c3ccc(O)cc3)CC4=O)O[C@H](CO)[C@@H](O)[C@@H]2O)[C@H](O)[C@H](O)[C@H]1O	237.5
O=c1ccn([C@@H]2O[C@H](COP(=O)(O)OP(=O)(O)O)[C@@H](O)[C@H]2O)c(=O)[nH]1 [Uridine 5'-diphosphate]	176.5
NC(=NCCC[C@H](N)C(=O)O)N[C@@H](CC(=O)O)C(=O)O	163.9
Nc1ncnc2c1ncn2[C@@H]1O[C@H](COP(=O)(O)O)[C@@H](OP(=O)(O)O)[C@H]1O [Adenosine 3',5'-diphosphate]	182.5
C[C@@H]1O[C@@H](OC[C@H]2O[C@@H](Oc3c(-c4ccc(O)c(O)c4)oc4cc(O)cc(O)c4c3=O)[C@H](O)[C@@H](O)[C@@H]2O)[C@H](O)[C@H](O)[C@H]1O	232.6
Cc1ncc(COP(=O)(O)O)c(CO)c1O [Pyridoxine 5-phosphate]	150.5

Reference source for all entries: the C3SDB collision cross section collection
